Examples of molecules with documented inhibition at 1 µM follow.
# system: Farnesyltransferase (FTase) (Bos taurus, UniProt P29702+P49355)
# Construct: precipitation from a beef brain homogenate; from tissue; host or cells: bovine brain
# experimentSummary: Farnesyltransferase inhibition (scintillation proximity assay, [3H]-FPP / biotin-K-ras peptide)
# Assay type: biochemical, bovine
# conditionParameters: compound at 10^−6 M; bovine FTase, 37° C., 30 minutes
Where a name gives a salt, the structure may show the parent alone.
testReadout: inhibition at 1 µM (%)

1) Cn1cncc1C(OCc1cccc(C#N)c1)c1ccc(C#N)c(-c2cccc3ccccc23)c1 (centres unmarked) : 100
2) Cn1cncc1C(OCc1ccc(Br)cc1)c1ccc(C#N)c(-c2cccc3ccccc23)c1 (centres unmarked) : 100
3) Cn1cncc1CN(Cc1ccc(C#N)cc1)C(=O)c1ccc(C#N)c(-c2cccc3cccnc23)c1 : 88
4) Cc1ccccc1-c1cc(N(Cc2cccc(C#N)c2)Cc2cncn2C)ccc1C#N : 100
5) Cc1ccccc1-c1cc(C(OCc2ccc(C(C)(C)C)cc2)c2cncn2C)ccc1C#N (centres unmarked) [Example 115, hydrochloride] : 89

Values from patent US20020019527A1
